molecular target: catalytic domain of human stromelysine (Homo sapiens); construct: enzymatic activity of the catalytic domains of human stomelysine and of neutrophil collagenase; made in house; test: Enzyme inhibition, catalytic domain of human stromelysine (fluorogenic substrate); assay type: biochemical; conditions: hydroxamic acids up to and including Example 33; tris/HCl buffer pH=7.5; read-out: Stromelysine IC 50
pIC50: −log10 of the molar value.
Property Name: pIC50

Worked examples, 5 compounds total:
>>> numeric_readout("COc1ccc(CC(=O)Nc2cccc(S(=O)(=O)N3Cc4ccccc4CC3C(=O)NO)c2)cc1 (centres unmarked)")
5.52
>>> numeric_readout("O=C(NO)[C@H]1Cc2ccccc2CN1S(=O)(=O)c1ccc(Oc2ccccc2)cc1 [Example 13c]")
7.70
>>> numeric_readout("COc1ccc(S(=O)(=O)N2CCc3cc4c(cc3C2C(=O)NO)CCC4)cc1 (centres unmarked)")
7.52
>>> numeric_readout("O=C(NO)C1Cc2ccccc2CN1S(=O)(=O)c1ccc(C(O)c2ccccc2)cc1 (centres unmarked)")
5.70
>>> numeric_readout("O=C(NO)[C@H]1Cc2ccccc2CN1S(=O)(=O)C1=CC2=CC=CCC2C=C1 (some centres unmarked)")
6.40

a: O=C(NO)[C@H]1Cc2ccccc2CN1S(=O)(=O)c1ccc(-c2ccc(Cl)cc2)cc1
b: O=C(NO)C1Cc2ccccc2CN1S(=O)(=O)c1ccccc1 (centres unmarked)
c: COc1ccc(S(=O)(=O)N2Cc3cc4c(cc3CC2C(=O)NO)OCO4)cc1 (centres unmarked)
Put these in order: smallest pIC50 first, largest last. Use the labels to give the ranking in the order requested.
b, c, a

* * *

target: catalytic domain of neutrophil collagenase (Homo sapiens, UniProt P22894); construct: enzymatic activity of the catalytic domains of human stomelysine and of neutrophil collagenase; made in house; test: Enzyme inhibition, catalytic domain of neutrophil collagenase (fluorogenic substrate); assay type: biochemical; settings: carboxylic acids from Example 34; piperazine-N,N'-bis[2-ethanesulfonic acid] buffer pH=6.5; read-out: Neutrophil collagenase IC 50
Sequence (P22894 100-262 limits assumed): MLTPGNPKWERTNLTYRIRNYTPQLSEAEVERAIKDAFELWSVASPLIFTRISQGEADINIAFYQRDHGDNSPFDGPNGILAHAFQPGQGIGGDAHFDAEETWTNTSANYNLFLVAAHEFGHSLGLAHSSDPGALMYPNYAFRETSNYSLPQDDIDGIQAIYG
pIC50: −log10 of the molar value.
Property Name: pIC50

>>> numeric_readout("O=C(O)[C@H]1Cc2cc([N+](=O)[O-])ccc2CN1S(=O)(=O)c1ccc(-c2ccc(Cl)cc2)cc1")
7.70
>>> numeric_readout("O=C(O)[C@H]1Cc2ccccc2CN1S(=O)(=O)c1ccc(OCc2ccc(F)cc2)cc1")
7.52
>>> numeric_readout("CN(C)c1ccc(-c2ccc(S(=O)(=O)N3Cc4ccccc4C[C@@H]3C(=O)O)cc2)cc1.Cl")
9.00
>>> numeric_readout("O=C(O)[C@H]1Cc2ccc([N+](=O)[O-])cc2CN1S(=O)(=O)c1ccc(-c2ccc(Cl)cc2)cc1")
7.52
>>> numeric_readout("O=C(O)[C@@H]1Cc2ccccc2CN1S(=O)(=O)c1ccc(-c2ccc(Cl)cc2)cc1")
5.52
>>> numeric_readout("O=C(O)[C@H]1Cc2ccccc2CN1S(=O)(=O)c1ccc(Sc2ccccc2)cc1")
6.70

a: O=C(O)[C@H]1Cc2ccccc2CN1S(=O)(=O)c1ccc(Oc2ccc(Cl)cc2)cc1
b: O=C(c1ccccc1)c1ccc(S(=O)(=O)N2Cc3ccccc3C[C@@H]2C(=O)O)cc1
Out of a and b , name the one with the higher pIC50. Give the chosen item's label as your response.
a
(a: 7.70, b: 6.52)

* * *

biological target: catalytic domain of human stromelysine (Homo sapiens, UniProt P08254); construct: enzymatic activity of the catalytic domains of human stomelysine and of neutrophil collagenase; made in house; test: Enzyme inhibition, catalytic domain of human stromelysine (fluorogenic substrate); assay type: biochemical; conditions: hydroxamic acids up to and including Example 33; tris/HCl buffer pH=7.5; read-out: Stromelysine IC 50
Sequence (P08254 100-272 limits assumed): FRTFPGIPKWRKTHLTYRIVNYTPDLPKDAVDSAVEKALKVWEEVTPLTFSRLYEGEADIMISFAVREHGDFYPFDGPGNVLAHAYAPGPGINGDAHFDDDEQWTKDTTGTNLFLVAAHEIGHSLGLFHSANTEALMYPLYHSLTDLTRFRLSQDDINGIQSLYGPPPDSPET
pIC50: −log10 of the molar value.
Property Name: pIC50

>>> numeric_readout("CC(=O)Nc1ccc(S(=O)(=O)N2Cc3ccccc3CC2C(=O)NO)cc1 (stereo not shown)")
6.15

A: O=C(NO)[C@H]1Cc2ccccc2CN1S(=O)(=O)c1ccc2oc3ccccc3c2c1
B: COc1ccc(S(=O)(=O)N2c3ccccc3CC2C(=O)NO)cc1 (stereo not shown)
Out of A and B , name the one with the higher pIC50. Give the chosen item's label as your response.
A
